normalized growth by entry:
Assay: chemical genetic growth profiling, strain panel (AID 1159580);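 also: tested at 20 µM; growth read once vehicle control cultures reached saturation at 30 °C; 1 = growth at the plate median or of vehicle wells; lower values mean less growth of the strain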
Conditions: S. cerevisiae deletion strains, growth OD, locus YDR001C, strain nth1, hits give low values
The whole screen tested about 5,500 compounds, of which about 2,000 (36%) were called active. Roughly 18% stayed inconclusive and do not appear here. The list shows a part of the results.

compound	normalized growth
COc1ccc2c3c([nH]c2c1)C(C)=NCC3	1.02
O=c1oc2cc(O)ccc2s1	1.01
Nc1ccccc1C(=O)CC(N)C(=O)O (stereo not drawn)	0.99
COc1ccc2c(c1)c(CC(=O)O)c(C)n2C(=O)c1ccc(Cl)cc1	0.978
Cc1cn([C@H]2C[C@H](N=[N+]=[N-])[C@@H](CO)O2)c(=O)[nH]c1=O	0.994
NC(Cc1c[nH]c2ccccc12)C(=O)O (stereo not drawn)	1.04
CNCc1ccccc1	1.02
CNC(=O)O/N=C\C(C)(C)SC	1.01
CCCCCCCCCCCCCCC(C(=O)O)C(O)(CC(=O)OC)C(=O)O (stereo not drawn)	1.02
CCOc1ccc2nc3cc(N)ccc3c(N)c2c1	0.94
O=C(O)CC(O)(CC(=O)O)C(=O)O	0.998
CCCCCCCCCCCC[C@H](C(=O)O)[C@@H](C)C(=O)O	0.966
C#C[C@]1(O)CCC2C3CCC4=CC(=O)CC[C@@H]4C3CC[C@@]21CC (stereo partly drawn)	1
